- TEST PROTOCOL: yeast display, Sf9 membrane polyspecificity reagent, FACS + sequencing; frameworks hold sequencing errors
MEASURED ENDPOINT: polyreactivity (PSR sort gate)

Guide cases for polyreactivity (PSR sort gate), answers given:
>  <SEQUENCE CHAIN>
QVQLVESGGGLVQAAGSLRLSCAASGRTFFPYAMGWYRQAPGKEREFVAAITKTDDSTYYADSVKGRFTISRDNAKNTVYLQMNSLKPEDSAVYYCNAGDTQIRFYYWGQVTQVTVSS

>  <polyreactivity (PSR sort gate)>
low polyreactivity

$$$$
>  <SEQUENCE CHAIN>
QVQLVESGGGLVQAGGSLRLSCAASGRIFFYNAMGWYRQAPGKERELVAAIDSGSSTYYADSVKGRFTISRDNAKNTVYLQMTSLKPEDTAVYYCAADGRRWYTEYDYWGQGTQVTVSS

>  <polyreactivity (PSR sort gate)>
low polyreactivity

$$$$
>  <SEQUENCE CHAIN>
QVQLVESGGGLVQAGGSLRLSCAASGSIFTRNTMGWSRQAPGKERELVAAISQRGGSTYSADSVKGRFTISRDNAKNTVYLQMNSLKPEDTAVYYCAADFSFGYYWDGFWGQGTQVTVSS

>  <polyreactivity (PSR sort gate)>
high polyreactivity

$$$$
>  <SEQUENCE CHAIN>
QVQLVESGGGLVQAGGSLRLSCAASGFTFHWYAMGWYRQAPGKERELVAAITDTGGSTYYADSVKGRFTISRDNAKNTVYLQMNSLKPEDTAVYYCATRHSKYGYEYDYWGQGTQVTVSS

>  <polyreactivity (PSR sort gate)>
low polyreactivity

$$$$

# input for lookup
Lookup: What value of polyreactivity (PSR sort gate) has been reported for the following sequence? QVQLVESGGGLVQAGGSLRLSCAASGSIFKTYAMGWYRQAPGKERELVAAITSSGGSTYYADSVKGRFTISRDNAKNTVYLQMNSLKPEDTAVYYCNARYWGYWGDHYDYWGQGTQVTVSS
Found: high polyreactivity
